Catalogue of Activity readings, one per entry.
# Test system: Raji
# assay.notes: Inhibition of 12-O-tetradecanoylphorbol-13-acetate-induced EBV-early antigen activation in human Raji cells assessed as EA activation at 32 nmol relative to 12-O-tetradecanoylphorbol-13-acetate
# Type: cell-based
# Set-up: scale not given: the % may be the effect or the level left
# condition.info: human gammaherpesvirus 4

Known results for molecules:
- molecule: "COC(=O)c1ccc2[nH]c3ccccc3c2c1"
  Activity: "21.7%"
- molecule: "COc1cc2c(c3c1[nH]c1ccccc13)CC(C(C)(C)O)OC2=O (centres undefined) [CLAUSAMINE C]"
  Activity: "12.4%"
- molecule: "COc1cc(C=O)c(CC=C(C)C)c2c1[nH]c1ccccc12 [EKEBERGININE]"
  Activity: "10.5%"
- molecule: "C=C(C)C1Cc2c(cc(O)c3[nH]c4ccccc4c23)C(=O)O1 (centres undefined) [CLAUSAMINE A]"
  Activity: "15.4%"
- molecule: "COC(=O)c1cc(OC)c2[nH]c3ccccc3c2c1CC=C(C)C [CLAUSAMINE]"
  Activity: "18.2%"

Req: Notebook: pull reported Activity for Raji, entry C=C(C)C1Cc2c(cc(OC)c3[nH]c4ccccc4c23)C(=O)O1 (centres undefined) [CLAUSAMINE B]
Resp: 18.3%

Req: Field entry: COC(=O)c1cc(O)c2[nH]c3ccccc3c2c1CC=C(C)C [CLAUSINE F]
Resp: 20.2%

Req: Field entry: COC(=O)c1cc(O)c2[nH]c3ccccc3c2c1 [CLAUSINE E]
Resp: 27.4%

Req: Field entry: O=Cc1cc(O)c2[nH]c3ccccc3c2c1 [O-DEMETHYLMURRAYANINE]
Resp: 25.2%

====

# System: Raji
# assay.notes: Inhibition of 12-O-tetradecanoylphorbol-13-acetate-induced EBV-early antigen activation in human Raji cells assessed as EA activation at 16 nmol relative to 12-O-tetradecanoylphorbol-13-acetate
# Format: cell-based
# Parameters: scale not given: the % may be the effect or the level left
# condition.info: human gammaherpesvirus 4
Catalogue of Activity readings, one per entry.
Numbers only here, please. The scale is %.

Known results for compounds:
- compound: "COC(=O)c1cc(OC)c2[nH]c3ccccc3c2c1CC=C(C)C"
  value.reported: 34.2
- compound: "O=Cc1cc(O)c2[nH]c3ccccc3c2c1"
  value.reported: 40.3
- compound: "COC(=O)c1cc(O)c2[nH]c3ccccc3c2c1CC=C(C)C"
  value.reported: 37.5

Req: Given C=C(C)C1Cc2c(cc(OC)c3[nH]c4ccccc4c23)C(=O)O1 (centres undefined) , state its recorded Activity.
Resp: 39.2

====

# assay.notes: Cytotoxicity against human Raji cells assessed as cell viability at 0.32 nmol by trypan blue assay
# Assay type: cell-based
# condition.info: read-out: Activity
quantity: viability at 0.32 nmol

- compound: "COC(=O)c1cc(OC)c2[nH]c3ccccc3c2c1CC=C(C)C [CLAUSAMINE]"
  value.reported: "> 80%"

Req: Given COC(=O)c1cc(O)c2[nH]c3ccccc3c2c1 [CLAUSINE E] , state its recorded viability at 0.32 nmol.
Resp: > 80%

Req: Field entry: COC(=O)c1ccc2[nH]c3ccccc3c2c1
Resp: > 80%

Req: Field entry: COc1cc2c(c3c1[nH]c1ccccc13)CC(C(C)(C)O)OC2=O (stereo not given) [CLAUSAMINE C]
Resp: > 80%

Req: Field entry: C=C(C)C1Cc2c(cc(O)c3[nH]c4ccccc4c23)C(=O)O1 (stereo not given) [CLAUSAMINE A]
Resp: > 80%
